In this section we review reported maximal ERSE-FLuc activation values for a set of molecules.
Test system: HEK293T-Rex ERSE-FLuc
measurement.protocol: maximal ERSE-FLuc activation from dose-response fit, relative to thapsigargin (% of thapsigargin); higher = stronger activation
applied.conditions: 18 h
observation.type: maximal ERSE-FLuc activation

molecular_string=CCOc1ccc2nc(NC(=O)c3ccn(C)n3)sc2c1 observed_result=10.9
molecular_string=O=C(NCCc1ccc(O)cc1)c1ccc2nc(-c3csc4ccccc34)sc2c1 observed_result=99.4
molecular_string=O=C(N/N=C/c1ccc(O)c(O)c1)c1ccc(Br)cc1 observed_result=51.2
molecular_string=Cc1ccc(/C=C(\C#N)C(=O)Nc2cccc(Cl)c2)o1 observed_result=14.7
molecular_string=Nc1nc(Nc2ccc(Cl)c(Cl)c2)nc2ccccc12 observed_result=138
molecular_string=O=C1NC(=Nc2ccc(F)cc2)S/C1=C\c1ccc(O)c(O)c1 observed_result=85.9
molecular_string=N#Cc1c(NC(=O)/C=C/c2ccco2)sc2c1CCCC2 observed_result=22.8
molecular_string=CCOc1cc(/C=C2/NC(=O)N(Cc3ccc(F)cc3)C2=O)ccc1O observed_result=36.3
molecular_string=C=CCn1c(N2CCC(C(=O)NCCc3ccc(O)c(O)c3)CC2)nc2ccccc21 observed_result=150
molecular_string=Nc1nc(Nc2ccccc2)cc(-c2ccccc2)n1 observed_result=25.8
molecular_string=COc1ccccc1-c1cnnc(N/N=C/c2c[nH]c3ccccc23)n1 observed_result=49.9

----------
# reported EC50 for XBP1-RLuc reporter activation; entries follow
Test system: HEK293T-Rex XBP1-RLuc
measurement.protocol: EC50 for XBP1-RLuc reporter activation
applied.conditions: 18 h
observation.type: EC50 for XBP1-RLuc reporter activation

molecular_string=N#C/C(=C/c1ccc(O)c(O)c1)c1nc2ccccc2[nH]1 observed_result="> 16.9 µM"
molecular_string=Cc1ccc(O)c(NC(=O)CSc2n[nH]c(C)c2[N+](=O)[O-])c1 observed_result="> 16.9 µM"
molecular_string=O=[N+]([O-])c1ccccc1NC(=S)N/N=C/c1ccc(O)c(O)c1 observed_result="> 18.3 µM"
molecular_string=O=c1[nH]c(COc2ccccc2)nc2sc3c(c12)CCCC3 observed_result="> 16.3 µM"
molecular_string=COc1cccc(-c2cc(C(=O)Nc3cc(C)ccc3O)on2)c1 observed_result="> 16.9 µM"
molecular_string=Cc1ccc2nc(/C(C#N)=C\c3cc(Cl)cc4c3OCOC4)[nH]c2c1 observed_result="> 16 µM"

----------
Test system: HEK293T-Rex XBP1-RLuc
measurement.protocol: EC50 for XBP1-RLuc reporter activation
applied.conditions: 18 h
Each entry below carries its reported EC50 for XBP1-RLuc reporter activation.
observation.type: EC50 for XBP1-RLuc reporter activation (µM)

molecular_string=N#Cc1ccc(-c2cccs2)nc1SCc1ccccn1 scale_unit=µM relation_symbol=> observed_result=16.4
molecular_string=COc1ccc(/C=N/c2sc3c(c2C(N)=O)CCCC3)cc1 scale_unit=µM relation_symbol=> observed_result=16.9
molecular_string=COc1ccc(/C=C2\SC(=O)NC2=Nc2ccc(C)cc2)c(OC)c1 scale_unit=µM relation_symbol=> observed_result=13
molecular_string=O=C(/C=C/c1ccccc1)Nc1ccc(Cl)cn1 scale_unit=µM relation_symbol=> observed_result=18.6
molecular_string=Cc1ccn2cc(-c3ccc(O)c(O)c3)nc2c1 scale_unit=µM relation_symbol== observed_result=11.9
molecular_string=O=C(NCCc1ccc(O)cc1)c1ccc2nc(-c3csc4ccccc34)sc2c1 scale_unit=µM relation_symbol== observed_result=13.3
molecular_string=O=C(CCCN1CCC2(CC1)C(=O)NCN2c1ccccc1)c1ccc(F)cc1 scale_unit=µM relation_symbol== observed_result=3.23
molecular_string=CCOc1cc(/C=C2/NC(=O)N(Cc3ccc(F)cc3)C2=O)ccc1O scale_unit=µM relation_symbol== observed_result=11.9
molecular_string=C=CCn1c(N2CCC(C(=O)NCCc3ccc(O)c(O)c3)CC2)nc2ccccc21 scale_unit=µM relation_symbol== observed_result=7.94
molecular_string=Oc1ccc(-c2cn3ccccc3n2)cc1O scale_unit=µM relation_symbol=> observed_result=22.5
molecular_string=Nc1ccc2nc(/C=C/c3ccco3)[nH]c2c1 scale_unit=µM relation_symbol=> observed_result=16.9
molecular_string=C=CCNC(=O)c1cc(-c2cccs2)on1 scale_unit=µM relation_symbol=> observed_result=16.9
